Biological target: T1, PSMA Fab (006 PSMA Fab)
T1 construct: also called Anti-PSMA Fab
Experiment: clonal phage ELISA on biotinylated PSMA Fab captured on neutravidin plates, anti-M13-HRP detection;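 further: crude clonal phage supernatants added to wells preincubated with PSMA antigen or with blocking buffer only (no wash between), briefly incubated, then washed before detecting bound phage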
Where no end group is shown, it is not given here.
ENDPOINT_NAME: Phage binding ELISA signal, Anti-PSMA Fab

[[record]]
binder = "VDRMCVPPWMCDVL [Phage-3827]"
number = 1.24

[[record]]
binder = "EAPYCRPSWMCAGF (cysteine pairing not given here; also: displayed on phage as fusion to pIII, junction not given here) [Phage-3824]"
number = 1.25

[[record]]
binder = "QEPVCRPAWMCSGF [Phage-3822]"
number = 1.26

[[record]]
binder = "PGMVCKPSWMCSHL [Phage-3825]"
number = 1.25

[[record]]
binder = "LDLSCVPAWMCTGF [Phage-3816]"
number = 1.28

[[record]]
binder = "ENAKCSPAWMCVGF [Phage-3818]"
number = 1.27

[[record]]
binder = "ASISCIPDWMCHGF [Phage-3815]"
number = 1.28

[[record]]
binder = "LLERCVPSWMCLGF [Phage-3820]"
number = 1.26

[[record]]
binder = "QVKYCEPQWMCAGL (cysteine pairing not given here; also: displayed on phage as fusion to pIII, junction not given here) [Phage-3823]"
number = 1.25

[[record]]
binder = "EFKWCVPDWMCYGV (cysteine pairing not given here; also: displayed on phage as fusion to pIII, junction not given here) [Phage-3814]"
number = 1.29

[[record]]
binder = "VHIMCVPPWMCERF [Phage-3819]"
number = 1.27

